test-method-notes: Inhibition of wild type Human immunodeficiency virus 1 NL4-3 envelope glycoprotein gp160-mediated cell-cell fusion between virus-infected monkey COS cells to human TZM-bl cells after 24 hrs by luciferase reporter gene assay
Type: cell-based
stated-conditions: Human immunodeficiency virus 1, NL4-3, COS
measurement-label: IC50 (nM)
One number for each entry, in nM.

q: Tell me the measured IC50 of C=C(C)[C@@H]1CC[C@]2(C(=O)NCCCCCCCNC(C)=O)CC[C@]3(C)[C@H](CC[C@@H]4[C@@]5(C)CC[C@H](O)C(C)(C)[C@@H]5CC[C@]43C)[C@@H]12 , please.
a: 42
